Target: T1, Avi-tag Fc with human IL-2R beta and IL-2R gamma attached (Acrobiosystems ACRB-ILG-H82F3-25UG) (human, UniProt P14784 27-239; P31785 23-262)
T1 construct: Bought; attached to the SAX2 biosensor; also called CD122 CD132; IL-2R βγ; not shown: Fc and Avi-tag
T1 sequence (looked up) 1: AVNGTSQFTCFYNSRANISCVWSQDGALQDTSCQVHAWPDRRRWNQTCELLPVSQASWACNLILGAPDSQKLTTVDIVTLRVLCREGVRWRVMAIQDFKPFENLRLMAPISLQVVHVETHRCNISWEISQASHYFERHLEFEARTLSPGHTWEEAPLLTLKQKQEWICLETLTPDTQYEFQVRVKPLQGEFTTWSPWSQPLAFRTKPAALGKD
T1 sequence (looked up) 2: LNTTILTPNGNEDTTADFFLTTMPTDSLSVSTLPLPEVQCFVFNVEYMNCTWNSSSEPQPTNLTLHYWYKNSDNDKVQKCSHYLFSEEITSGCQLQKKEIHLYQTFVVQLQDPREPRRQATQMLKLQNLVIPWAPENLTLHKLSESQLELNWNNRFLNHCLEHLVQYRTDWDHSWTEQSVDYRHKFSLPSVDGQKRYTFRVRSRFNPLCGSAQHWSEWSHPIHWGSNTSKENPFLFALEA
Assay: BLI (Octet R8), receptor on SAX2 sensor
Bridges are numbered along the chain shown (N, C = ends). Primed or numbered codes have the meaning given here. [ ]: non-standard residue; d: D form. Ygp = O-(8x polyethylene glycol-amino)-tyrosine (Tyr, amino-capped PEG8); Yn3 = O-(9x polyethylene glycol-azido)-tyrosine (Tyr, azide-capped PEG9); Ygp(3) = O-(PEG8-amino)-tyrosine; Yn3(3) = O-(PEG9-azido)-tyrosine; PEG4′ = 4x polyethylene glycol; hSer = N[C@@H](CCO)C(=O)O; Nle = CCCC[C@H](N)C(=O)O
Endpoint Label: koff (s⁻¹)
Response body: numeric value in s⁻¹, unit text excluded.

[
  {
    "Binder": "CMP-138 (ligand, bridge (positions not given here); not fully specified (bridges); numbers in words are those of the source; also: Cys58-Cys105 disulfide expected from oxidative folding) [PEG4′]SGGPGPAGMKGLPGS[PEG4′]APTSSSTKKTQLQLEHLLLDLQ[Nle]ILNGIENYKNPKLTR[Nle]L[hSer][Yn3(3)]KF[Ygp(3)][Nle]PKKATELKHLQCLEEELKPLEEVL[hSer]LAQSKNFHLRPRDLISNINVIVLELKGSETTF[hSer]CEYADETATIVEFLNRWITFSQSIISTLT",
    "Endpoint Label": "koff",
    "Quantity Unit": "s⁻¹",
    "Reading": 0.00284
  }
]

Let us move to another entry and its koff.
What measured koff goes with CMP-319 (ligand, lactam N-33; ends not checked) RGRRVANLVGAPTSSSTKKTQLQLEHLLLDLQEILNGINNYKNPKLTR[Nle]L[hSer][Yn3]KF[Ygp][Nle]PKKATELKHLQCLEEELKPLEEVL[hSer]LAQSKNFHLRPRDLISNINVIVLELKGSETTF[hSer]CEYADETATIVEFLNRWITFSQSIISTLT ?
0.000786
